This collection of values is drawn from paper PMC6008489.

# Lookup of reported AurB ligand efficiency (LE) keyed by entry
target_or_test_system: UniProt Q96GD4
Sequence (Q96GD4 whole entry): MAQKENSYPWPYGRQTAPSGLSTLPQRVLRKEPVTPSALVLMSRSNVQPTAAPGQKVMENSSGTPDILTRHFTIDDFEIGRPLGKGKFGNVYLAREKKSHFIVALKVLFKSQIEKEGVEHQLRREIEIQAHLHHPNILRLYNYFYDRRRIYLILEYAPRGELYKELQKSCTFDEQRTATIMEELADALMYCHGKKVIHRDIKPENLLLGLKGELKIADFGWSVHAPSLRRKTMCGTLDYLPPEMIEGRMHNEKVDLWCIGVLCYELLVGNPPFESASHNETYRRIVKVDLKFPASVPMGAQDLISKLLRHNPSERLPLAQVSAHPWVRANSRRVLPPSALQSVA
Format: biochemical
test_settings: from Ki
Number only, no unit.

{"columns": ["compound", "target_or_test_system", "quantity_kind", "measured_number"],
 "data": [
  ["Cc1nc(O)c(N)cc1-c1ccncc1 [Compound 15]", "UniProt Q96GD4", "AurB ligand efficiency (LE)", 0.42],
  ["O=C(Nc1cc(-c2ccnc(NC3CC3)n2)c[nH]c1=O)c1ccccc1 [Compound 24]", "UniProt Q96GD4", "AurB ligand efficiency (LE)", 0.28],
  ["CNc1nccc(-c2c[nH]c(=O)c(N)c2)n1 [Compound 7]", "UniProt Q96GD4", "AurB ligand efficiency (LE)", 0.41]
]}

Please examine the following record next.
Bench note: what AurB ligand efficiency (LE) did Nc1cc(-c2ccnc(NC3CC3)n2)c[nH]c1=O [Compound 8] show?
0.37

----------
# Lookup of reported inhibition at 100 µM keyed by entry
target_or_test_system: PKA (Homo sapiens, UniProt P17612)
Construct: purchased Perkin Elmer (ProfilerPro assay kit 1)
test_description: 26-kinase panel mobility shift assay, single concentration
Format: biochemical
test_settings: read-out: % Inhibition PKA
Respond numerically; units are % and should not be typed.

Illustrative cases are given below, each with its answer.
{"columns": ["compound", "target_or_test_system", "inhibition at 100 µM / %"],
 "data": [
  ["CNc1nccc(-c2c[nH]c(=O)c(N)c2)n1 [Compound 7]", "PKA (Homo sapiens, UniProt P17612)", 81],
  ["Nc1ccc[nH]c1=O [Compound 1, 3-aminopyridin-2-one]", "PKA (Homo sapiens, UniProt P17612)", 0],
  ["Cc1nc(O)c(N)cc1-c1ccncc1 [Compound 15]", "PKA (Homo sapiens, UniProt P17612)", 0],
  ["Nc1cc(-c2ccnc3ccccc23)c[nH]c1=O [Compound 6]", "PKA (Homo sapiens, UniProt P17612)", 48],
  ["Nc1cc(-c2ccnc(NC3CC3)n2)c[nH]c1=O [Compound 8]", "PKA (Homo sapiens, UniProt P17612)", 8],
  ["COc1ncc(-c2ccncc2)cc1N [Compound 5, 6-Methoxy-3,4′-bipyridin-5-amine]", "PKA (Homo sapiens, UniProt P17612)", 52]
]}

Please examine the following record next.
Bench note: what inhibition at 100 µM did Cn1cc(-c2c[nH]c(=O)c(N)c2)cn1 [Compound 2] show?
66

----------
target_or_test_system: CK1d (Homo sapiens)
Construct: purchased Perkin Elmer (ProfilerPro assay kit 1)
Sequence (P48730 whole entry): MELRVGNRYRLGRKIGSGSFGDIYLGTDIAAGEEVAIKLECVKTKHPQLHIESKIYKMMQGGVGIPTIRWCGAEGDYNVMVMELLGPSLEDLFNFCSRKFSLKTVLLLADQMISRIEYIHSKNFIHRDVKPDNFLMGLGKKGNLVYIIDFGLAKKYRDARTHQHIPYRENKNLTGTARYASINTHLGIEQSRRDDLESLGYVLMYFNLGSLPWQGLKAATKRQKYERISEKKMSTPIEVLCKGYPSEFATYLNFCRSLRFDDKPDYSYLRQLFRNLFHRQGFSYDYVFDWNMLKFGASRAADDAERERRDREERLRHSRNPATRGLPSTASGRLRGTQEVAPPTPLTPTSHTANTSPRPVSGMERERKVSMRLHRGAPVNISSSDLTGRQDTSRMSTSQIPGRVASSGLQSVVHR
test_description: 26-kinase panel mobility shift assay, single concentration
Type: biochemical
test_settings: read-out: % Inhibition CK1d
quantity_kind: inhibition at 100 µM
Don't forget the unit after the value.

Illustrative cases are given below, each with its answer.
{"columns": ["smiles_notation", "inhibition at 100 µM"],
 "data": [
  ["Nc1cc(-c2ccnc3ccccc23)c[nH]c1=O", "37%"],
  ["Cn1cc(-c2c[nH]c(=O)c(N)c2)cn1", "72%"],
  ["Nc1cc(-c2ccnc(NC3CC3)n2)c[nH]c1=O", "63%"],
  ["CNc1nccc(-c2c[nH]c(=O)c(N)c2)n1", "79%"],
  ["Nc1ccc[nH]c1=O", "45%"]
]}

Bench note: what inhibition at 100 µM did COc1ncc(-c2ccncc2)cc1N show?
38%

Bench note: what inhibition at 100 µM did Cc1nc(O)c(N)cc1-c1ccncc1 show?
33%

----------
target_or_test_system: p38 (Homo sapiens)
Construct: purchased Perkin Elmer (ProfilerPro assay kit 1)
Sequence (Q16539 whole entry): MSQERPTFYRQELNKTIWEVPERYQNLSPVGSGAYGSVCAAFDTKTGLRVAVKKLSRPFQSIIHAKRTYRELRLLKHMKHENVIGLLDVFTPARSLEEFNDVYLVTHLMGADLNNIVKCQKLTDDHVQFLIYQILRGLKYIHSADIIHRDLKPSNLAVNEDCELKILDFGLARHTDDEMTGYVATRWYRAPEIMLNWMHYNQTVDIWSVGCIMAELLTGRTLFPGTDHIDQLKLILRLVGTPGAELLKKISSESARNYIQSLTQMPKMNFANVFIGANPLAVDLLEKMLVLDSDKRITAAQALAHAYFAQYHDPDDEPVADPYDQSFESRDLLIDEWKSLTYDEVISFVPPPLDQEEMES
test_description: 26-kinase panel mobility shift assay, single concentration
Assay type: biochemical
test_settings: read-out: % Inhibition p38
quantity_kind: inhibition at 100 µM (%)
Respond numerically; units are % and should not be typed.

{"columns": ["smiles_notation", "output_unit", "inhibition at 100 µM"],
 "data": [
  ["CNc1nccc(-c2c[nH]c(=O)c(N)c2)n1", "%", 25],
  ["Cn1cc(-c2c[nH]c(=O)c(N)c2)cn1", "%", 39],
  ["Cc1nc(O)c(N)cc1-c1ccncc1", "%", 8],
  ["Nc1cc(-c2ccnc(NC3CC3)n2)c[nH]c1=O", "%", 12],
  ["Nc1ccc[nH]c1=O", "%", 9],
  ["Nc1cc(-c2ccnc3ccccc23)c[nH]c1=O", "%", 0]
]}

Lab request: please report inhibition at 100 µM under test system p38 (Homo sapiens) for COc1ncc(-c2ccncc2)cc1N
0

----------
# Lookup of reported inhibition at 100 µM keyed by entry
target_or_test_system: FYN (Homo sapiens)
Construct: purchased Perkin Elmer (ProfilerPro assay kit 1)
Sequence (P06241 whole entry): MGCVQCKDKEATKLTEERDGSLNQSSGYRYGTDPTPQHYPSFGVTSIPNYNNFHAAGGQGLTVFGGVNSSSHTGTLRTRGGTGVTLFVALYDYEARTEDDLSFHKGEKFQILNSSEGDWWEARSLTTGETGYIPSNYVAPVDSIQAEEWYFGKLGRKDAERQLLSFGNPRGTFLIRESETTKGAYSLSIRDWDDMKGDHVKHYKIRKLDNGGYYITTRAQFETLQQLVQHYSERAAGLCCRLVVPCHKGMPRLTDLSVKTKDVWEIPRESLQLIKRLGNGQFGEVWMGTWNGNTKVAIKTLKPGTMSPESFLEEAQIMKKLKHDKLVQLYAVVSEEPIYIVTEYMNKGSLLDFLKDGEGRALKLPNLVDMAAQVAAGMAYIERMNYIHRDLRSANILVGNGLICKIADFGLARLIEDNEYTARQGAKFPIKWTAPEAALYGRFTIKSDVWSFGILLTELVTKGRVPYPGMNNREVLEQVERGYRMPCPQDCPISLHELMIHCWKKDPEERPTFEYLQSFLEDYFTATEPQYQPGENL
test_description: 26-kinase panel mobility shift assay, single concentration
Assay type: biochemical
test_settings: read-out: % Inhibition FYN
Respond numerically; units are % and should not be typed.

Illustrative cases are given below, each with its answer.
{"columns": ["smiles_notation", "quantity_kind", "measured_number"],
 "data": [
  ["CNc1nccc(-c2c[nH]c(=O)c(N)c2)n1", "inhibition at 100 µM", 66],
  ["Cn1cc(-c2c[nH]c(=O)c(N)c2)cn1", "inhibition at 100 µM", 34],
  ["Nc1ccc[nH]c1=O", "inhibition at 100 µM", 11]
]}

Bench note: what inhibition at 100 µM did Cc1nc(O)c(N)cc1-c1ccncc1 show?
6

Bench note: what inhibition at 100 µM did Nc1cc(-c2ccnc(NC3CC3)n2)c[nH]c1=O show?
51

Bench note: what inhibition at 100 µM did COc1ncc(-c2ccncc2)cc1N show?
9

Bench note: what inhibition at 100 µM did Nc1cc(-c2ccnc3ccccc23)c[nH]c1=O show?
40

----------
target_or_test_system: Aurora A (Homo sapiens)
Mark 1 only for Ki values smaller than 30 µM; exact matches and larger values are -1.

Before answering, review these 5 worked examples.
{"columns": ["molecule", "group"],
 "data": [
  ["Cc1[nH]c(=O)c(C#N)cc1-c1ccncc1 [Compound 13, Milrinone, reference compound]", -1],
  ["Nc1cc(-c2cccnc2)c[nH]c1=O [Compound 11]", -1],
  ["CN1CCN(c2ccc(C(=O)Nc3cc(-c4ccncc4)c[nH]c3=O)cc2)CC1 [Compound 22]", 1],
  ["Cc1[nH]c(=O)c(C(N)=O)cc1-c1ccncc1 [Compound 14]", -1],
  ["O=C(Nc1cc(-c2ccncc2)c[nH]c1=O)c1ccc(N2CCCCC2)cc1 [Compound 23]", 1]
]}

Strictly below 30 µM in Ki? O=C(Nc1cc(-c2ccncc2)c[nH]c1=O)c1ccccc1 [Compound 16]
1

Strictly below 30 µM in Ki? Nc1cc(-c2ccnc3ccccc23)c[nH]c1=O [Compound 6]
-1

Strictly below 30 µM in Ki? O=C(Nc1cc(-c2ccncc2)c[nH]c1=O)c1cccc(F)c1 [Compound 19]
-1

Strictly below 30 µM in Ki? Cn1cc(-c2c[nH]c(=O)c(N)c2)cn1 [Compound 2]
1

----------
# Lookup of reported inhibition at 100 µM keyed by entry
target_or_test_system: AKT1 (Homo sapiens, UniProt P31749)
Construct: purchased Perkin Elmer ProfilerPro assay kit 1
Sequence (P31749 whole entry): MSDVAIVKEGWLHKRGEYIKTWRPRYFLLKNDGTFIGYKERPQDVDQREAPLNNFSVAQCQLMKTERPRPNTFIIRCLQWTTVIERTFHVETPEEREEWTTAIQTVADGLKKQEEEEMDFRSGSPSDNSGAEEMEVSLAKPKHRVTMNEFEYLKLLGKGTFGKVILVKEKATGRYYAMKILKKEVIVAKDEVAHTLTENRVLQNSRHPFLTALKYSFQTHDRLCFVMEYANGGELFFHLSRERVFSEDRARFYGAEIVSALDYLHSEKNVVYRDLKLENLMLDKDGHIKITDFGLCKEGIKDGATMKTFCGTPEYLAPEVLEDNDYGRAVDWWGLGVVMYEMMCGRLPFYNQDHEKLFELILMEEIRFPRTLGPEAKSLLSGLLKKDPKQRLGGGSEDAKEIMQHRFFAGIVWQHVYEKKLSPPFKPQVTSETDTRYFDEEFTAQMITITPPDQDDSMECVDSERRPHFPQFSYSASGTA
test_description: 26-kinase panel mobility shift assay, single concentration
Format: biochemical
test_settings: read-out: % Inhibition AKT1
Respond numerically; units are % and should not be typed.

Illustrative cases are given below, each with its answer.
{"columns": ["compound", "quantity_kind", "output_unit", "measured_number"],
 "data": [
  ["Nc1cc(-c2ccnc(NC3CC3)n2)c[nH]c1=O [Compound 8]", "inhibition at 100 µM", "%", 18],
  ["Nc1cc(-c2ccnc3ccccc23)c[nH]c1=O [Compound 6]", "inhibition at 100 µM", "%", 15]
]}

Bench note: what inhibition at 100 µM did Cn1cc(-c2c[nH]c(=O)c(N)c2)cn1 [Compound 2] show?
97

Bench note: what inhibition at 100 µM did COc1ncc(-c2ccncc2)cc1N [Compound 5, 6-Methoxy-3,4′-bipyridin-5-amine] show?
22

Bench note: what inhibition at 100 µM did Nc1ccc[nH]c1=O [Compound 1, 3-aminopyridin-2-one] show?
42

Bench note: what inhibition at 100 µM did CNc1nccc(-c2c[nH]c(=O)c(N)c2)n1 [Compound 7] show?
89

Bench note: what inhibition at 100 µM did Cc1nc(O)c(N)cc1-c1ccncc1 [Compound 15] show?
10

----------
target_or_test_system: Aurora A (Homo sapiens, UniProt O14965)
Sequence (O14965 whole entry): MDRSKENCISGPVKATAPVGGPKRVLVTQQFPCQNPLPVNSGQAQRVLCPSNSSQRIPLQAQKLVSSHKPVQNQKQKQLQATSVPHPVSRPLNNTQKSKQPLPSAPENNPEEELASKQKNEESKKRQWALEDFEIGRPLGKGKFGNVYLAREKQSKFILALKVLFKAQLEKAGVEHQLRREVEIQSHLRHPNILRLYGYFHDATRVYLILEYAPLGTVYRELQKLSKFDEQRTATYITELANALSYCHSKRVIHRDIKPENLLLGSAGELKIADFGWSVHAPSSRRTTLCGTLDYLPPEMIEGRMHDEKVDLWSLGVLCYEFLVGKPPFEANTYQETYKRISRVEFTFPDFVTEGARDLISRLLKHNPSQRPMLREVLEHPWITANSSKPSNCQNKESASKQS
Format: biochemical
test_settings: from Ki
Threshold rule: AurA ligand efficiency (LE) greater than or equal to 0.3 is t; below that, f.

{"columns": ["smiles_notation", "group"],
 "data": [
  ["O=C(Nc1cc(-c2ccncc2)c[nH]c1=O)c1ccccc1", "t"],
  ["Nc1ccc[nH]c1=O", "t"],
  ["CNc1nccc(-c2c[nH]c(=O)c(N)c2)n1", "t"],
  ["Nc1cc(-c2ccccc2)cnc1O", "t"],
  ["Nc1cc(-c2cccnc2)c[nH]c1=O", "t"]
]}

Quick check, AurA ligand efficiency (LE) >= 0.3? Nc1cc(-c2ccnc3ccccc23)c[nH]c1=O
t

Quick check, AurA ligand efficiency (LE) >= 0.3? Nc1cc(-c2ccnc(NC3CC3)n2)c[nH]c1=O
t

Quick check, AurA ligand efficiency (LE) >= 0.3? CN1CCN(c2ccc(C(=O)Nc3cc(-c4ccncc4)c[nH]c3=O)cc2)CC1
f

Quick check, AurA ligand efficiency (LE) >= 0.3? O=C(Nc1cc(-c2ccnc(NC3CC3)n2)c[nH]c1=O)c1ccccc1
f

Quick check, AurA ligand efficiency (LE) >= 0.3? Nc1cc(-c2cncnc2)c[nH]c1=O
t

Quick check, AurA ligand efficiency (LE) >= 0.3? Cn1cc(-c2c[nH]c(=O)c(N)c2)cn1
t

Quick check, AurA ligand efficiency (LE) >= 0.3? O=C(Nc1cc(-c2ccncc2)c[nH]c1=O)c1ccc(N2CCCCC2)cc1
f

Quick check, AurA ligand efficiency (LE) >= 0.3? COc1ncc(-c2ccncc2)cc1N
t
